Every entry's value here was drawn from PubChem BioAssay.

Record form. Attribute: z-score. Fill in for each entry.
# protocol: inhibitors of hydroxyurea-induced Chk1 phosphorylation, primary screen, imaging, HeLa, phospho-Chk1 nuclear intensity (AID 1187); note: test concentration not given here
# conditions: hydroxyurea-induced phospho-Chk1 immunofluorescence imaging, higher = more signal
Answers are plain numbers.

Would you please look over these solved cases?
{"columns": ["compound", "quantitativeReadout"],
 "data": [
  ["CC(C)c1ccc(NN2C(C(O)c3cccc(O)c3)C=CC3C(=O)N(c4ccccc4)C(=O)C32)cc1 (stereo not drawn)", 0.88],
  ["COCC(=C=CC[C@H](O)c1ccc(OCCO)cc1)C[C@H](O)c1cc(Cl)cc(Cl)c1O", 0.56],
  ["C=CC[C@@]1(C(=O)N2CCOCC2)N=C(c2ccc(OCCCO)cc2)O[C@@H]1c1ccccc1N=[N+]=[N-]", -0.141]
]}

Lab note: each compound below needs its z-score filled in.
1. O=C(NCc1ccccc1)[C@]1(CCS(=O)(=O)c2ccccc2)N=C(c2ccc(OCCCO)cc2)O[C@@H]1c1ccccc1
2. N#Cc1ccc(NN2C(C(O)c3cccs3)C=CC3C(=O)N(c4ccccc4)C(=O)C32)cc1 (stereo not drawn)
3. COc1cc(CO)ccc1OC(C)=O
4. COCCOC(=O)N1C(=O)[C@@]2(c3cc(C#CCC(C(=O)OC)C(=O)OC)ccc31)[C@H](C(=O)N1CCCCCCC1)[C@H]1C(=O)O[C@H](c3ccccc3)[C@H](c3ccccc3)N1[C@@H]2c1ccc(OCCO)cc1

Return:
1: -0.255; 2: -0.548; 3: 0.0389; 4: -0.719

What the record says about C=C(C(=O)CC[C@H](OC(C)=O)c1ccc(OCCO)cc1)C(C)C : z-score is -0.0365

###

# Test system: Plasmodium falciparum Sir2 (PF13_0152, Sir2A)
# protocol: pfSir2 binders on small-molecule microarrays, primary screen, biochemical, small-molecule microarray, 635 nm fluorescence (AID 1098);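 note: score merges spot fluorescence intensity with its signal-to-noise ratio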
# conditions: small-molecule microarray binding, fluorescence 635 nm; higher = more signal
Think of 0.8 as a floor: if composite z-score stands on it or above, it is condition met; beneath it, condition not met.

Look over these answered cases.
{"columns": ["compound", "classification"],
 "data": [
  ["C=CCC(OC(C)=O)[C@@H]1[C@@H](N(Cc2cc3ccccc3o2)C(=O)c2ccc(C)cc2)c2cc(OCCCO)ccc2N1C(=O)c1ccc2ccccc2c1 (stereo not given in full)", "condition not met"],
  ["CN(C)C(=O)[C@]1(CCC(=O)OC(C)(C)C)N=C(c2ccc(OCCCO)cc2)O[C@@H]1c1ccccc1N=[N+]=[N-]", "condition met"],
  ["COc1ccc(CCNC(=O)[C@@H]2c3ccccc3C(=O)N(Cc3ccc(OC(F)(F)F)cc3)[C@H]2c2ccc(CO)cc2)cc1", "condition met"]
]}

Enquiry: Record COc1ccc(CCNC(=O)[C@@]2(c3ccc([N+](=O)[O-])cc3)CC(=O)N(CC34CC5CC(CC(C5)C3)C4)[C@@H]2c2ccc(CO)cc2)cc1 ; criterion: composite z-score no lower than 0.8. Met?
Return: condition met

Enquiry: Record COc1cc(C(O)C2C=CC3C(=O)N(c4ccccc4)C(=O)C3N2Nc2ccc(C#N)cc2)cc(OC)c1OC (stereo not given) ; criterion: composite z-score no lower than 0.8. Met?
Return: condition met

Enquiry: Record CC(=O)NCCCC[C@@H]1NC(=O)[C@@H]2C[C@H](C(=O)NCCCCCCNC(=O)CS)[C@H](c3ccc(O)cc3)N2C1=O ; criterion: composite z-score no lower than 0.8. Met?
Return: condition met

###

# Tested on: Lefty1
# protocol: Lefty1 binders on small-molecule microarrays, primary screen, biochemical, small-molecule microarray, 635/667 nm fluorescence (AID 1139)
# conditions: small-molecule microarray binding, fluorescence 635/667; higher = more signal
Record form. Attribute: composite z-score. Fill in for each entry.

Lab note: each molecule below needs its composite z-score filled in.
1. C=CCC(OC(C)=O)[C@@H]1[C@@H](N(Cc2ccc(-c3ccccc3)cc2)C(=O)Cc2ccc(F)cc2)c2cc(OCCCO)ccc2N1C(=O)c1ccc2ccccc2n1 (stereo partly drawn)
2. [N-]=[N+]=NCc1ccccc1[C@@H]1OC(c2ccc(OCCCO)cc2)=N[C@]1(Cc1ccccc1)C(=O)N1CCCCC1
3. C=C(CCCC)/C(=C/C[C@H](OC(C)=O)c1ccc(CO)o1)c1cnc2ccccc2c1
4. C=CCC(OC(C)=O)[C@@H]1[C@@H](N(Cc2ccc(-c3ccccc3)cc2)C(=O)Cc2ccc(OC)cc2)c2cc(OCCCO)ccc2N1C(=O)c1ccc2ccccc2n1 (stereo partly drawn)
5. CC(C)(C)OC(=O)CC[C@@]1(C(=O)O)N=C(c2ccc(OCCCO)cc2)O[C@@H]1c1ccccc1N=[N+]=[N-]
6. CCCCCCCCCCC(O)C1C=CC2C(=O)N(Cc3ccccc3)C(=O)C2N1n1cnnc1 (stereo not drawn)
7. C=C(COC)/C(=C/C[C@H](OC(=O)c1ccncc1)c1cccc(OCCO)c1)c1cc(C(=O)OC)ccc1OC
8. O=C1c2ccccc2[C@@]2(Cc3ccccc3N(Cc3ccccc3)C2=O)[C@H](c2ccc(CO)cc2)N1C1CCCCC1

Return:
[-0.192, -0.0101, 1.29, 0.221, -0.666, 0.486, 0.819, 0.483]

Lab note: each molecule below needs its composite z-score filled in.
1. CC(C)(C)N1CC=CC23O[C@@H]4C=CCOC(=O)[C@@H]4[C@H]2C(=O)N(CCCCCO)[C@@H]3C1=O (stereo partly drawn)
2. O=C1O[C@@H](c2ccccc2)[C@@H](c2ccccc2)N2[C@@H](c3ccc(OCCO)cc3)[C@]3(C(=O)Nc4ccccc43)[C@@H](C(=O)Nc3nc4ccccc4s3)[C@H]12
3. O=C1O[C@@H](c2ccccc2)[C@@H](c2ccccc2)N2[C@@H](c3ccc(OCCO)cc3)[C@]3(C(=O)Nc4ccc(C#CC5=CCCCC5)cc43)[C@@H](C(=O)O)[C@H]12
4. O=C(CS)NCCCCCCNC(=O)[C@@H]1C[C@@H]2C(=O)N3CCC[C@H]3C(=O)N2[C@@H]1c1ccc(O)cc1

Return:
-1.17
1.28
0.46
-0.686

###

# protocol: inhibitors of hydroxyurea-induced Chk1 phosphorylation, primary screen, imaging, HeLa, phospho-Chk1 nuclear intensity (AID 1187); note: test concentration not given here
# conditions: hydroxyurea-induced phospho-Chk1 immunofluorescence imaging, higher = more signal
Record form. Attribute: z-score. Fill in for each entry.
Numbers only.

Would you please look over these solved cases?
{"columns": ["compound", "quantitativeReadout"],
 "data": [
  ["COc1ccc(C(=O)Nc2cccc(CN3C(=O)[C@@]4(O[C@@H](CCn5cc(CCO)nn5)[C@H]([Si](C)(C)c5ccc(OC)cc5)[C@H]4C)c4ccccc43)c2)cc1", 0.199],
  ["COC(=O)[C@@]1(Cc2ccc(OC)cc2)[C@H]2c3cc(C(=O)N4CCCC4)n(Cc4ccccn4)c3C[C@H]2CN1C(=O)c1ccccc1", 0.451]
]}

Lab note: each compound below needs its z-score filled in.
1. O=C1C2C=CC(C(O)c3cccs3)N(Nc3ccccc3F)C2C(=O)N1c1ccccc1 (stereo not drawn)
2. CCCCCCCCCCC(O)C1C=CC2C(=O)N(Cc3ccccc3)C(=O)C2N1n1cnnc1 (stereo not drawn)
3. CC(=O)C1=CCC(c2ccccc2)N(S(=O)(=O)c2ccc(C)cc2)C1 (stereo not drawn)
4. COc1ccc(CCNC(=O)[C@@]2(c3ccc([N+](=O)[O-])cc3)CC(=O)N(CC34CC5CC(CC(C5)C3)C4)[C@@H]2c2ccc(CO)cc2)cc1
5. C=CC[C@]1(C(=O)N2CCOCC2)N=C(c2ccc(OCCCO)cc2)O[C@H]1c1ccccc1
6. CC(C)N1C(=O)C[C@@](C(=O)NCc2ccccc2)(c2ccc([N+](=O)[O-])cc2)[C@H]1c1ccc(CO)cc1

Return:
-0.299
-0.034
0.216
-0.458
-0.217
-0.128

###

# targetEntity: NADPH oxidase 2 (Homo sapiens) (UniProt P04839)
# Sequence (P04839 whole entry, looked up): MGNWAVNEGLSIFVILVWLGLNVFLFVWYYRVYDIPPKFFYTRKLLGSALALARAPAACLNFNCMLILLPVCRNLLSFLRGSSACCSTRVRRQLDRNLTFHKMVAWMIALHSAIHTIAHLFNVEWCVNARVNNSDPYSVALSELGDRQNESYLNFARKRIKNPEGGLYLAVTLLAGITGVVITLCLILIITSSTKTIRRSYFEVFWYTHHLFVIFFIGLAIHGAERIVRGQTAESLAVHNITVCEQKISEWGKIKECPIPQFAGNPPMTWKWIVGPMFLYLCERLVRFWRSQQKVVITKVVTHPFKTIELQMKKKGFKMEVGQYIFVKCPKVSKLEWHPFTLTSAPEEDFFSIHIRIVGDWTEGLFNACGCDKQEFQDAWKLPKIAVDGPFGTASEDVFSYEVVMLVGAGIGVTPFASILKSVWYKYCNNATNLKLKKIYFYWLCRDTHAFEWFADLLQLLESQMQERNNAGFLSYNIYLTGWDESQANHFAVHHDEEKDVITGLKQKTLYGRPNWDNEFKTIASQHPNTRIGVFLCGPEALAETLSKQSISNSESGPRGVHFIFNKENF
# protocol: NOX2-dependent H2O2 signal modulators, primary screen, NOX inhibitor project, cell-based, HEK293-NOX2, PMA-stimulated, Amplex Red fluorescence (AID 1159); note: test concentration not given here
# conditions: 45 min, higher = more signal, called active from +8 up or from −8 down
Active and inactive are the calls of the source.
Record form. Attribute: z-score. Fill in for each entry.

Would you please look over these solved cases?
{"columns": ["compound", "z-score"],
 "data": [
  ["CCCCCN1CC=CC23O[C@@H]4/C=C\\CCCOC(=O)C4[C@H]2C(=O)N(CCCCCCO)[C@@H]3C1=O (some centres not stated)", "0.876 (inactive)"],
  ["COc1ccc(C#Cc2ccc3c(c2)[C@]2(C(=O)N3)[C@H](c3ccc(O)cc3)N3[C@H](c4ccccc4)[C@H](c4ccccc4)OC(=O)[C@H]3[C@@H]2C(=O)N2CCCCCCC2)cc1", "0.723 (inactive)"],
  ["O=C1[C@]2(CO)C=C(Br)[C@@H](C[C@@H]2c2ccccc2)[C@@]12CO2", "0.538 (inactive)"]
]}

Lab note: each compound below needs its z-score filled in.
1. C=CCC(OC(C)=O)[C@@H]1[C@@H](N(Cc2ccc(-c3ccccc3)cc2)C(=O)Cc2ccc(F)cc2)c2cc(OCCCO)ccc2N1C(=O)c1ccc2ccccc2n1 (some centres not stated)
2. COCCOC(=O)N1C(=O)[C@@]2(c3cc(C#CCC(C(=O)OC)C(=O)OC)ccc31)[C@H](c1ccc(O)cc1)N1[C@H](c3ccccc3)[C@H](c3ccccc3)OC(=O)[C@H]1[C@@H]2C(N)=O
3. COc1cccc(C(=O)O[C@H]2CC[C@]3(C)C4=C(CCC3C2(C)C)[C@]2(C)CC[C@H]([C@H](C)CCCC(C)C)[C@@]2(C)CC4)c1 (some centres not stated)
4. CC(C)OC(=O)CC(=O)CC(O)c1ccc(C#N)cc1 (configuration not stated)

Return:
-0.632 (inactive)
1.4 (inactive)
-0.606 (inactive)
0.574 (inactive)
